Data provenance is paper PMC6736568.

- System: HCT-8 host cells (Hs18S)
- setupConditions: primary screening at 10 uM, treated vs control
Mark Not fulfilled for Hs18S ΔCT values under -0.02, and Fulfilled for everything at or above.

For this molecule, is measured Hs18S ΔCT -0.02 or higher? COc1cc2c(cc1-c1cc3cc4ccoc4cc3oc1=O)OCO2 [PACHYRRHIZIN]
Not fulfilled

Does the reported Hs18S ΔCT for O=C1c2cccc(O)c2C(=O)c2c(O)cccc21 [DANTHRON] fall at or above the -0.02 mark?
Not fulfilled

Check the entry CC(=O)O[C@@H]1C[C@]2(C)[C@@H](C(C)=O)CC[C@H]2[C@@H]2CCC3=CC(=O)CC[C@]3(C)[C@H]21 [11a-ACETOXYPROGESTERONE] : does Hs18S ΔCT equal or exceed -0.02?
Not fulfilled

# bool: Hs18S ΔCT of CCCCCC[C@H]1C(=O)O[C@H](C)[C@H](NC(=O)c2cccc(NC=O)c2O)C(=O)O[C@@H](C)[C@@H]1OC(=O)CC(C)C [ANTIMYCIN A, ANTIMYCIN A (A1 shown)] >= -0.02
Fulfilled

Does the molecule CC[C@@]1(O)C[C@H](O[C@H]2C[C@H](N(C)C)[C@H](O)[C@H](C)O2)c2c(cc3c(c2O)C(=O)c2c(O)ccc(O)c2C3=O)[C@H]1C(=O)OC [PYRROMYCIN] have recorded Hs18S ΔCT that is -0.02 or more?
Fulfilled
